# pKi per entry for h-5-HT6 receptor (Homo sapiens)
pKi: −log10 of the molar value. Where a name gives a salt, the structure may show the parent alone.

Item COc1ccc(S(=O)(=O)Nc2cc(C)ccc2OC(F)F)cc1C1CCN(C)C1 (stereo not shown) [Example 2, hydrochloride] with h-5-HT6 receptor (Homo sapiens) - pKi?
> 8.00

====

Target: h-5-HT6 receptor (Homo sapiens, UniProt P50406)
Construct: expressed in transfected cells
Sequence (P50406 whole entry): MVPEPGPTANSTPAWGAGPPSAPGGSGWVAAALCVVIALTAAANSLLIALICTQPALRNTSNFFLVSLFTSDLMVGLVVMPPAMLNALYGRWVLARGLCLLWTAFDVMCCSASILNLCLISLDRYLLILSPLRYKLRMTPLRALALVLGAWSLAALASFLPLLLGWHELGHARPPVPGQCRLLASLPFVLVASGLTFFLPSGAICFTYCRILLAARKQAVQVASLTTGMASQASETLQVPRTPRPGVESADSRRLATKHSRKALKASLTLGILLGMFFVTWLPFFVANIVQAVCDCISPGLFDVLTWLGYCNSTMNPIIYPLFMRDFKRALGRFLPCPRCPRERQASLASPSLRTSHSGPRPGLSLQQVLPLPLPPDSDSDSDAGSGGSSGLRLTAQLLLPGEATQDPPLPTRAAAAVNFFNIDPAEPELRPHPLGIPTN
Assay: 5-HT6 receptor binding assay (displacement of [3H]-LSD)
Conditions: membranes of HEK293 cells expressing h-5-HT6 receptor, 1 nM [3H]-LSD
Where a name gives a salt, the structure may show the parent alone.
Known Ki of a selection of molecules

COc1ccc(S(=O)(=O)Nc2cc(C)ccc2OC(F)F)cc1C1CCNCC1 [Example 4, hydrochloride] : < 10 nM
COCc1ccccc1NS(=O)(=O)c1ccc(OC)c(C2CCNC2)c1 (stereo not drawn) [Example 3, hydrochloride] : < 20 nM

Param item = COc1ccc(S(=O)(=O)Nc2ccc(C)cc2OC(F)F)cc1C1CCNCC1 [Example 5, hydrochloride] ; retrieve measured Ki.
< 20 nM

====

pKi: −log10 of the molar value. Structures can show the parent of a compound that is named as a salt.
# pKi per entry for h-5-HT6 receptor (Homo sapiens)

The examples below pair each entry with its known result.
COc1ccc(S(=O)(=O)Nc2cc(C)ccc2OC(F)F)cc1C1CCN(C)CC1 [Example 7, hydrochloride] : > 8.00
COCc1ccccc1NS(=O)(=O)c1ccc(OC)c(C2CCNCC2)c1 [Example 6, hydrochloride] : > 7.00

// below: pKi requested for another molecule
Param item = COc1ccc(S(=O)(=O)Nc2cc(C)ccc2OC(F)F)cc1C1CCNC1 (stereo not drawn) [Example 1, hydrochloride] ; retrieve measured pKi.
> 8.00
